# MEASURED ON: HIV-1 HXB2 envelope glycoprotein gp41 (N-trimer of the prehairpin intermediate) (HIV-1 strain HXB2, UniProt P04578 512-856)
# ASSAY TEXT: cell-based or functional assay
Bridges are numbered along the chain shown (N, C = ends). Where no end group is shown, it is not given here. [ ]: non-standard residue; d: D form.
Consider the following binders; for each one, report its IC50, HXB2 pseudovirion entry.
Report the value in nM with no unit label.

Exercise: Data request, read-out IC50, HXB2 pseudovirion entry, for Ac-[dH][dP][dC][dD][dY][dP][dE][dW][dQ][dW][dL][dC][dE][dL]GK-NH2 (disulfide 3-12 (inferred); not fully specified (residue 16)) [Chol-PEG12-PIE12 (monomer)]
Key: 12

Exercise: Entry [dC][dD][dY][dP][dE][dW][dQ][dW][dL][dC][dE][dL]G[dK] (disulfide 1-10 (inferred)) [ΔHP-PIE12] please
Key: 3100
